Each item that follows carries a reported pEC50.
Molecular target: human somatostatin receptor subtype 2 (Homo sapiens)
Sequence (P30874 whole entry): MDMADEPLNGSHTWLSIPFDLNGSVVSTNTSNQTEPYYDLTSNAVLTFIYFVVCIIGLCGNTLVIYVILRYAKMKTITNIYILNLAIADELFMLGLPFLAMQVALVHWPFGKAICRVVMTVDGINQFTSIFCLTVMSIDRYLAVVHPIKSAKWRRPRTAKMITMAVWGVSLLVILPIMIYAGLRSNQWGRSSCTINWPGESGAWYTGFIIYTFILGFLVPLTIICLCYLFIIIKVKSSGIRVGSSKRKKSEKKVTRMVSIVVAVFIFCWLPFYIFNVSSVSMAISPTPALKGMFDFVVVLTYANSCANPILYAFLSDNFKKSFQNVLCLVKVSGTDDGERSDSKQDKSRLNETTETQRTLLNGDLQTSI
Experiment: cAMP assay for SST2R (inhibition of cAMP via human SST2 receptor)
Conditions: Table B, read-out: SST2 potency
pEC50: −log10 of the molar value.

Examples with their reported pEC50 follow.
{"molecule": "Cc1cnc2nc(-c3cncc(-c4ccc(F)c(C#N)c4)c3N3CC[C@](C)(N)C3)[nH]c2c1", "pEC50": "< 6.00"}
{"molecule": "Cc1ccnc2nc(-c3cncc(-c4ccc(F)c(C(F)(F)F)c4)c3N3CC[C@](C)(N)C3)[nH]c12", "pEC50": "6.00 to 7.00"}
{"molecule": "Cc1cccc2c1nc(-c1cncc(-c3ccc(F)c(C#N)c3)c1N1CC[C@H](N)C1)n2C", "pEC50": "< 6.00"}
{"molecule": "Cc1cc(F)cc(-c2cncc(-c3nc4cccc(C)c4[nH]3)c2N2CC[C@H](N)C2)c1", "pEC50": "6.00 to 7.00"}
{"molecule": "CC1(N)CCN(c2c(-c3cccc(Cl)c3)cncc2-c2nc3cccc(F)c3[nH]2)C1 (stereo not drawn)", "pEC50": "7.00 to 8.00"}

Moving on to the next molecule.
Query: pEC50; subject: `CCn1c(-c2cncc(-c3ccc(F)c(C#N)c3)c2N2CC[C@H](N)C2)nc2c(F)cccc21`
< 6.00

====

Target: human somatostatin receptor subtype 2 (Homo sapiens)
Construct: expressed in transfected cells
Assay: cAMP assay for SST2R (inhibition of cAMP via human SST2 receptor)
Type: cell-based
Conditions: Table B, read-out: SST2 potency
readout_name: EC50

Examples with their reported EC50 follow.
{"compound": "Cc1cc(F)cc(-c2cncc(-c3nc4cccc(C#N)c4[nH]3)c2N2CC(CN)C2)c1", "EC50": "> 1000 nM"}
{"compound": "Cc1ccnc2nc(-c3cncc(-c4cc(F)cc(C#N)c4)c3N3CCC(C)(N)C3)[nH]c12 (stereo not drawn)", "EC50": "100 to 1000 nM"}
{"compound": "Cn1c(-c2cncc(-c3cccc(C#N)c3)c2N2CC[C@H](N)C2)nc2cccc(Cl)c21", "EC50": "100 to 1000 nM"}

Query: EC50; subject: `CCn1c(-c2cncc(-c3cccc(C#N)c3)c2N2CC[C@H](N)C2)nc2c(F)cccc21`
100 to 1000 nM

Repeat with `Cc1cccc2nc(-c3cncc(-c4ccc(F)c(OC(F)(F)F)c4)c3N3CC[C@H](N)C3)[nH]c12`
100 to 1000 nM

Repeat with `C[C@]1(N)CCN(c2c(-c3ccnc(C(F)(F)F)c3)cncc2-c2nc3c(F)cccc3[nH]2)C1`
100 to 1000 nM

Repeat with `C[C@]1(N)CCN(c2c(-c3ccc(F)c(C#N)c3)cncc2-c2nc3cccc(C#N)c3[nH]2)C1`
100 to 1000 nM

Repeat with `C[C@]1(N)CCN(c2c(-c3ccnc(C#N)c3)cncc2-c2nc3cccc(Cl)c3[nH]2)C1`
100 to 1000 nM

Repeat with `COc1cc(F)cc(-c2cncc(-c3nc4c(C)cccc4[nH]3)c2N2CC[C@H](N)C2)c1`
100 to 1000 nM

Repeat with CC1(N)CCN(c2c(-c3cc(F)cc(C#N)c3)cncc2-c2nc3cccc(F)c3[nH]2)C1 (stereo not drawn)
100 to 1000 nM

Repeat with `Cc1cc(F)cc(-c2cncc(-c3nc4c(F)cccc4[nH]3)c2N2CC[C@H](N)C2)c1`
100 to 1000 nM

Repeat with `N#Cc1cc(F)cc(-c2cncc(-c3nc4ccc(Cl)cc4[nH]3)c2N2CC[C@H](N)C2)c1`
> 1000 nM

Repeat with `Cn1c(-c2cncc(-c3cc(F)cc(C#N)c3)c2N2CC[C@H](N)C2)nc2c(Cl)cccc21`
> 1000 nM

Repeat with Cc1cc(F)cc(-c2cncc(-c3nc4cc(F)cc(F)c4[nH]3)c2N2CCC(N)C2)c1 (stereo not drawn)
100 to 1000 nM

Repeat with `Cc1ccnc2nc(-c3cncc(-c4cc(F)cc(C#N)c4)c3N3CC[C@](C)(N)C3)[nH]c12`
100 to 1000 nM
